- Assay Comment: protein stability index of a GFP-peptide fusion (GPS, HEK-293T) (PSI 1-6); higher = more stable;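 note: 24-mer peptide tiles fused after GFP, lentivirally expressed, FACS-sorted into six equal bins by GFP/DsRed ratio, decoded by Illumina sequencing, PSI is the read-weighted mean bin number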
- Protocol Conditions: treatment: MLN4924 1 uM, 8 h; c terminus: a fixed tail appended
Outcome Measure: protein stability index
Answer as a number with no unit attached.

>  <Seq Text>
QIPTQNTQARQVMEREFNNLLALG [PPFIA4]

>  <protein stability index>
3.37

$$$$

### Prompt What does the record list as protein stability index for SVHNDLWESWFVPDPAGIFKLNHH [GLT8D2] ?
### Response 2.53

### Prompt And RLKCRSFKWYLENVYPEMRVYNNT [GALNT9] ?
### Response 2.19

---

- Assay Comment: protein stability index of a GFP-peptide fusion (GPS, HEK-293T) (PSI 1-6); higher = more stable
- Protocol Conditions: treatment: MLN4924 1 uM, 8 h; c terminus: a fixed tail appended
Overview of reported protein stability index across a group of sequences:
Answer as a number with no unit attached.

Worked cases, answers included:
>  <Seq Text>
CTQVTQDGDIPNIPAEENASTSTP [FAM189A2]

>  <protein stability index>
5.5

$$$$
>  <Seq Text>
GYEKRNLARVPKLDLKRQYDRVAQ [CHGB]

>  <protein stability index>
3.11

$$$$
>  <Seq Text>
YIVAGSARQHALYIWEKSIGNLVK [RBBP5]

>  <protein stability index>
2.14

$$$$

Now let's try a different one.
### Prompt What does the record list as protein stability index for RANRGILQQERQRLGQRQPPPSEP [DNAJC4] ?
### Response 4.79

---

- Assay Comment: protein stability index of a GFP-peptide fusion (GPS, HEK-293T) (PSI 1-6); higher = more stable
- Protocol Conditions: treatment: DMSO; c terminus: a fixed tail appended
Returns one of Condition met or Condition not met; Condition met when protein stability index is >= 4.

>  <Seq Text>
LGFGSAKEAVTGSRLGQGIGPIHL [LOXL2]

>  <Assigned Label>
Condition not met

$$$$

### Prompt Is protein stability index for PAKAANRTPPKSPGDPSKDRAAKR [TPPP] at or above 4?
### Response Condition met

### Prompt And LLPDQARGEVPWSPELGRPHDRSQ [ZNF263] ?
### Response Condition met

### Prompt And TKSHIMLVQRQMSVIEEDLEEFQL [NECAB1] ?
### Response Condition not met

### Prompt And AFWSLVTLGSSFIPGEHFWLLLLT [SPNS1] ?
### Response Condition not met

### Prompt And FARVKKGADGVMRTMAPEKLLKSM [SNAP91] ?
### Response Condition not met

### Prompt And ALERRRRALQEEERAAAQARRELQ [ZBED3] ?
### Response Condition met

### Prompt And KSKHAPRGTHLWEFIRDILIHPEL [ELF3] ?
### Response Condition not met

### Prompt And LSLPARNQAGYFMLPTVITDIKDE [ALDH8A1] ?
### Response Condition not met

### Prompt And RPRALPCQRSRYRDSLTQPDEEPM [RSPH3] ?
### Response Condition met

### Prompt And TLCDVTLRVEQKDFPAHRIVLAAC [KLHL12] ?
### Response Condition not met

### Prompt And QVDPGTDLEPGVLMSAQTITSETT [EPB41L3] ?
### Response Condition met

### Prompt And FQVNKLMKKIKKLENDTISKQLTL [CCDC6] ?
### Response Condition not met

### Prompt And QGIGSKIIKKVAEVALDKGCSQFR [SAT2] ?
### Response Condition not met

### Prompt And QLQAARNEYLLNLVATNAHLDHYY [FCHSD1] ?
### Response Condition not met

### Prompt And QMMPYMQPVMQSDRTAIRSDTTHL [KLHL13] ?
### Response Condition not met

### Prompt And TDQPPLVQAIFSGDPEEIRMLIHK [ANKRD44] ?
### Response Condition not met

### Prompt And SWYPKANNQDFIPFTKKRVGVDRA [ZC2HC1C] ?
### Response Condition not met

### Prompt And VAKRKSSMPQKFLGDKGLSDTPYD [IKZF1] ?
### Response Condition met

---

- Assay Comment: protein stability index of a GFP-peptide fusion (GPS, HEK-293T) (PSI 1-6); higher = more stable
- Protocol Conditions: treatment: MLN4924 1 uM, 8 h; c terminus: a fixed tail appended
Outcome Measure: protein stability index
Answer as a number with no unit attached.

Worked cases, answers included:
>  <Seq Text>
ASEAFHWDERGRAAAYSPSEALLY [ANKRD9]

>  <protein stability index>
3.4

$$$$
>  <Seq Text>
VELIPEKKGLFLKHVEYEVSSQRF [SNX8]

>  <protein stability index>
2.46

$$$$
>  <Seq Text>
GPKESLPVIAAPSMWTRPQIKDFK [ACBD3]

>  <protein stability index>
3.79

$$$$
>  <Seq Text>
LRRESTSQKEMDKAETKTKKAAES [FCHO1]

>  <protein stability index>
5.46

$$$$
>  <Seq Text>
ACGIVSGKYDSGIPPYSRASLKGY [KCNAB2]

>  <protein stability index>
2.2

$$$$
>  <Seq Text>
AINNLVLQGCSSIGLRLVLEYLYT [KLHL14]

>  <protein stability index>
3.04

$$$$
>  <Seq Text>
RTLKSYLGLTNQSRRYNRKEPAEF [ZNF649]

>  <protein stability index>
3.05

$$$$
>  <Seq Text>
AQQLEEEGPMEEEEAQPMAAPEGK [EID1]

>  <protein stability index>
5.53

$$$$

### Prompt What does the record list as protein stability index for LERKCEKRSVYIDARDEELEKDTM [ZC3H15] ?
### Response 4.9

---

- Assay Comment: protein stability index of a GFP-peptide fusion (GPS, HEK-293T) (PSI 1-6); higher = more stable
- Protocol Conditions: treatment: MLN4924 1 uM, 8 h; c terminus: a fixed tail appended
Overview of reported protein stability index across a group of sequences:
Answer as a number with no unit attached.

>  <Seq Text>
MLLDIKTRLEQEIATYRSLLEGQD [KRT15]

>  <protein stability index>
3.07

$$$$
>  <Seq Text>
QAGPEATTSDPQDLDMKKHRCKCC [PALM]

>  <protein stability index>
5.17

$$$$
>  <Seq Text>
EAYTKICDPGLTAFEPEALGNLVE [CAMK2D]

>  <protein stability index>
3.62

$$$$
>  <Seq Text>
ACDSKLTFDAITTIRGEVMFFKDR [MMP1]

>  <protein stability index>
2.83

$$$$
>  <Seq Text>
THSRMGSIMSTGIVQGSSGAQGSG [CARM1]

>  <protein stability index>
4.26

$$$$

### Prompt What does the record list as protein stability index for ETFIVPDSFLVALDMDDGTLSFIV [SPSB1] ?
### Response 2.58

### Prompt And QSGLVWTNCWLIRELNLPFGGMKS [ALDH8A1] ?
### Response 2.61

### Prompt And HGPQLPTGIEGNWGRLLEQVGTMA [ZBED2] ?
### Response 3.08

### Prompt And LDVIERDLHRQFPFHEMFVSRGGH [TBC1D10A] ?
### Response 2.86

### Prompt And ALTGPVVDIVTGHARLSDIWAKTP [DHCR7] ?
### Response 2.71

---

- Assay Comment: protein stability index of a GFP-peptide fusion (GPS, HEK-293T) (PSI 1-6); higher = more stable
- Protocol Conditions: treatment: DMSO; c terminus: a fixed tail appended
Returns one of y or n; y when protein stability index is >= 3.

>  <Seq Text>
PSTTPPAHSSSNTIRSGISPNLNV [SASS6]

>  <Assigned Label>
y

$$$$
>  <Seq Text>
LSSDRVANSSSEAPFPNVSTSLLT [ADAMTSL2]

>  <Assigned Label>
y

$$$$
>  <Seq Text>
PHYICTLKQPHLLLEKYSYYLISG [PNLIPRP1]

>  <Assigned Label>
n

$$$$
>  <Seq Text>
PQEAVLQQLHQLPRGRLDLATQSL [LRRC45]

>  <Assigned Label>
y

$$$$
>  <Seq Text>
TFVSTCQAIDATVAAELLNHLLES [HES6]

>  <Assigned Label>
n

$$$$

### Prompt Is protein stability index for GDKSESPDEANVGKHPKDKTEDEN [TOR1AIP2] at or above 3?
### Response y

### Prompt And DLVLDEEGARAAGLGELGAALLQL [ESRRA] ?
### Response y

### Prompt And APGYDPETVTVTVGPAEPTLVNFH [CPN1] ?
### Response y

### Prompt And KGKTAVDTVFRFDPRYNKWMQVAS [KLHL13] ?
### Response n

### Prompt And NCPEFPPPDRTLGCWATDAAPAAG [RSPH3] ?
### Response y

### Prompt And VGDLMSPFDQSGLGAEESLGLLDD [ATF4] ?
### Response y

### Prompt And VEYKDIASIHWDWKIALLFVAFAL [SLC35F2] ?
### Response n

### Prompt And TGEKPHTCSECGKGFIQKGNLNIH [ZNF649] ?
### Response y

### Prompt And PDVRPPLGRGLVGGQEEASQEAGL [SEPHS2] ?
### Response y

### Prompt And IFFDDLDSPSKEEVFRFVQSCARA [CPOX] ?
### Response n

### Prompt And SQKEMDKAETKTKKAAESLRRSVE [FCHO1] ?
### Response y

### Prompt And RDSHGKGIPNAIISVEGINHDIRT [CPXM2] ?
### Response y

### Prompt And WGRLLEQVGTMALWASQREKEVLR [ZBED2] ?
### Response n

### Prompt And HDCAESGSLDIMKMLLMYCAKMEK [FEM1C] ?
### Response n

### Prompt And KQLISQTKKKQWCYNCEEEAMYHC [ZMYND11] ?
### Response y

### Prompt And LLFKLVAPVTFRHHRYDDLVRTLY [CPN1] ?
### Response n

### Prompt And MPGFPDNIRPSSSGGYWVGMSTIR [APMAP] ?
### Response n

### Prompt And RYADLEAVNRARRPLARPIKRGDI [RHOBTB1] ?
### Response y

### Prompt And GYRCFVCPVEYNNDTNSFTVDCEP [CDS2] ?
### Response n

### Prompt And QPLEASNPALEGLTQPLQGGTPHC [DNAAF3] ?
### Response y
